Test system: HCT116 WT cells
assay_name: HCT116 proliferation assay, WT cells (CellTiter-Glo, 6 days)
Assay type: cell-based
details: Homo sapiens, HCT-116, 144 h, read-out: Prolif_HCT116-WT IC50
The following molecules are listed with their measured log10 IC50 values.
reported_property: log10 IC50 (log10 of the value in µM)

>>> df
                                   molecule      test_system  reported_property  value_observed
0  Cc1cc2cc(C(=O)N(Cc3ccc(OC(F)F)cn3)[C@H](C)c3ncccn3)ccc2nc1N (single isomer, unassigned)  HCT116 WT cells         log10 IC50            0.10
1  Cc1cc2cc(C(=O)N(Cc3ccc(C(F)F)cn3)Cc3ncccc3F)ccc2nc1N  HCT116 WT cells         log10 IC50            0.64
2  Cc1cc2cc(C(=O)N(Cc3ccc(C(F)(F)F)cn3)[C@@H]3CCOC[C@H]3O)ccc2nc1N (single isomer, unassigned) [Example 815]  HCT116 WT cells         log10 IC50            0.71
3  C[C@H](c1ncccn1)N(Cc1ccc(C(F)(F)F)cn1)C(=O)c1ccc2nc(N)ccc2c1  HCT116 WT cells         log10 IC50           -0.29
4  Cc1cc2cc(C(=O)N(Cc3ccc(C(F)(F)F)cn3)[C@H](C)C3CC3)ccc2nc1N  HCT116 WT cells         log10 IC50            0.87

###

The following compounds are listed with their measured log10 of Ki values.
test_system: PRMT5/MEP50 (Homo sapiens)
Sequence (O14744 2-637 limits assumed): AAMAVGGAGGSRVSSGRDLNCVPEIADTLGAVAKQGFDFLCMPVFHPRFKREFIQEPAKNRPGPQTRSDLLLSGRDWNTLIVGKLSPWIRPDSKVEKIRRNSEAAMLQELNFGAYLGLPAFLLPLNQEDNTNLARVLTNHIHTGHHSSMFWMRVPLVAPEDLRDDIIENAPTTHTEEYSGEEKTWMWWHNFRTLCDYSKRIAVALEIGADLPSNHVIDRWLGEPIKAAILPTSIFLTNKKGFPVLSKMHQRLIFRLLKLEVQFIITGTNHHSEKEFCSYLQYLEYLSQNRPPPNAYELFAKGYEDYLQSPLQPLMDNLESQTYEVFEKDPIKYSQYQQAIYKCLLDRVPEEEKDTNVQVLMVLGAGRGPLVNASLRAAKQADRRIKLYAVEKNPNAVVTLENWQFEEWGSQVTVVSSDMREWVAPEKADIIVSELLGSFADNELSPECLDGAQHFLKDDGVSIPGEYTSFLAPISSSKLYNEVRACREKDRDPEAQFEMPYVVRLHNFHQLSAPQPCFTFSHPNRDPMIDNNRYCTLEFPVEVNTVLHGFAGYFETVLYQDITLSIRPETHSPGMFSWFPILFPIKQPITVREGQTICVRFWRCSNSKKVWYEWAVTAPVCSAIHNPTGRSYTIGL
Sequence (Q9BQA1 2-342 partner limits assumed): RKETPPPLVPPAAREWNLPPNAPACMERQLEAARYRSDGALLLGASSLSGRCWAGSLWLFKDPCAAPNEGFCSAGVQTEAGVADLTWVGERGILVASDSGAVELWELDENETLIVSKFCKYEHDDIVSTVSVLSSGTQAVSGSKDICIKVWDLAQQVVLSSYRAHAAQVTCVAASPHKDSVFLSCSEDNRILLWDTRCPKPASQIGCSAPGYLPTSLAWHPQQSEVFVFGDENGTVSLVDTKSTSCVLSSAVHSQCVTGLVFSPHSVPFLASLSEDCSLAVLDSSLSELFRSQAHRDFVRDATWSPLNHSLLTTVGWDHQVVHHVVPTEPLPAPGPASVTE
assay_name: MTase-Glo methyl transferase assay, Method B (FL-Histone H2A, 1 µM MTA, 1 h pre-incubation)
Type: biochemical
Parameters: purchased Reaction Biology Corp RD-11-292
details: read-out: PRMT5 MTase Glo Ki (nM, Meth. B)
reported_property: log10 of Ki (log10 of the value in nM)

>>> df
                                    compound  reported_property  value_observed
 0  Cc1cc2cc(C(=O)N(Cc3ccc(C(F)(F)F)cn3)C(C)c3ccc4c(c3)NC(=O)CO4)ccc2nc1N (stereo not shown)        log10 of Ki            0.30
 1  Cc1cc2cc(C(=O)N(Cc3ccc(C(F)(F)F)cn3)C3CCCC3C#N)cnc2nc1N (stereo not shown)        log10 of Ki            1.58
 2  CNC(=O)c1ccc(CN(Cc2ccc(C(F)(F)F)cn2)C(=O)c2ccc3nc(N)c(C)cc3c2)cc1        log10 of Ki            0.28
 3  Cc1cc2cc(C(=O)N(Cc3ccc(C(F)(F)F)cn3)C(C)C(C)C)ccc2nc1N (stereo not shown)        log10 of Ki            0.41
 4  Cc1cc2cc(C(=O)N(Cc3ccc(N4CCCC4)cc3)Cc3ccc(C(F)(F)F)cn3)ccc2nc1N        log10 of Ki            0.83
 5  Cc1cc2cc(C(=O)N(Cc3cncc(F)c3)Cc3ccc(C(F)(F)F)cn3)ccc2nc1N        log10 of Ki            0.80
 6  Cc1cc2cc(C(=O)N(Cc3ccc(C(F)(F)F)cn3)[C@@H]3CCc4ccccc43)ccc2nc1N        log10 of Ki            0.25
 7  Cc1cc2cc(C(=O)N(Cc3cnc4[nH]ccc4c3)Cc3ccc(C(F)(F)F)cn3)ccc2nc1N        log10 of Ki            0.39
 8  C#CC(C)N(Cc1ccc(C(F)(F)F)cn1)C(=O)c1ccc2nc(N)c(C)cc2c1 (stereo not shown)        log10 of Ki            0.72
 9  Cc1cc2cc(C(=O)N(Cc3ccc(C(F)(F)F)cc3)Cc3c(F)cncc3F)ccc2nc1N        log10 of Ki            0.09
10  Cc1cc2cc(C(=O)N(Cc3ccc(C(F)(F)F)cn3)C3CCCC3C#N)ncc2nc1N (stereo not shown)        log10 of Ki            1.57
11  Cc1cc2cc(C(=O)N(Cc3cc(Cl)ccn3)CC(C)C)ccc2nc1N        log10 of Ki            1.09
12  Cc1cc2cc(C(=O)N(Cc3ccc(N)cn3)Cc3c[nH]c4ccccc34)ccc2nc1N        log10 of Ki            0.55
13  Cc1cc2cc(C(=O)N(Cc3ccc(C(F)(F)F)cn3)CC3CCC3)ccc2nc1N        log10 of Ki            0.58
14  Cc1cc2cc(C(=O)N(Cc3cccc(-c4ncc[nH]4)c3)Cc3ccc(C(F)(F)F)cn3)ccc2nc1N        log10 of Ki            0.34

###

Test system: HCT116 MTAP null cells
assay_name: HCT116 proliferation assay, MTAP null cells (CellTiter-Glo, 6 days)
Assay type: cell-based
details: HCT116-MTAP null, 144 h, read-out: Protif_ HCT116-MTAP null IC50
pIC50: −log10 of the molar value.
Classify by measured pIC50: 1.0 if it is equal to or exceeds 7, 0.0 if it is smaller.

>>> df
                                    molecule  assigned_class
 0  CO[C@@H]1CCOC[C@H]1N(Cc1ccc(C(F)(F)F)cn1)C(=O)c1ccc2nc(N)c(C)cc2c1 (racemic) [Example 833]             1.0
 1  CNc1ccc(CN(C(=O)c2ccc3nc(N)c(C)cc3c2)[C@H](C)c2ncccc2F)nn1 [Example 824]             0.0
 2  Cc1cc2cc(C(=O)N(Cc3ccc(C(F)(F)F)cn3)C[C@H]3CC[C@H](O)CC3)ccc2nc1N [Example 676]             0.0
 3  Cc1cc2cc(C(=O)N(Cc3ccc(C(F)(F)F)cn3)CC3CCOCC3)ccc2nc1N [Example 683]             0.0
 4  Cc1cc2cc(C(=O)N(Cc3ccc(Br)nn3)[C@@H]3CCCn4ncnc43)ccc2nc1N [Example 416]             0.0
 5  Cc1cc2cc(C(=O)N(Cc3ccc(C#N)cn3)[C@H](C)c3ncccn3)ncc2nc1N [Example 418]             0.0
 6  C[C@H](c1ncn(C)n1)N(Cc1ccc(C(F)F)cn1)C(=O)c1ccc2nc(N)c(I)cc2c1 [Example 839]             1.0
 7  Cc1cc2cc(C(=O)N(Cc3ccc4[nH]c(N)nc4c3)Cc3ccc(C(F)(F)F)cn3)ccc2nc1N [Example 616]             0.0
 8  C#CCCN(Cc1ccc(C(F)(F)F)cn1)C(=O)c1ccc2nc(N)c(C)cc2c1 [Example 659]             0.0
 9  Cc1cc2cc(C(=O)N(Cc3ccc(C#N)cn3)[C@H](C)c3ccccc3F)ccc2nc1N [Example 405]             1.0
10  Cc1cc2cc(C(=O)N(Cc3ccc(C(F)(F)F)cn3)C3CCc4nc(N)ncc4C3)ccc2nc1N (stereo not shown) [Example 668]             0.0
11  Cc1cc2cc(C(=O)N(Cc3cccnc3)Cc3ccc(C(F)(F)F)cn3)ccc2nc1N [Example 301]             0.0

###

The following molecules are listed with their measured IC50 values.
Test system: HCT116 MTAP null cells
assay_name: HCT116 proliferation assay, MTAP null cells (CellTiter-Glo, 6 days)
Assay type: cell-based
details: HCT116-MTAP null, 144 h, read-out: Protif_ HCT116-MTAP null IC50
reported_property: IC50 (nM)

In [3]: df
Out[3]:
                                   molecule  reported_property  value_observed
0  Cc1cc2cc(C(=O)N(Cc3cccc(-c4ncc[nH]4)c3)Cc3ccc(C(F)(F)F)cn3)ccc2nc1N               IC50             370
1  Cc1cc2cc(C(=O)N(Cc3ccc(C(F)(F)F)cn3)C3CCc4[nH]ncc4C3)ccc2nc1N (stereo not shown)               IC50             404
2  Cc1cc2cc(C(=O)N(Cc3ccc(C(F)(F)F)nn3)[C@H](C)c3ncccc3F)ccc2nc1N               IC50              70
3  Cc1cc2cc(C(=O)N(Cc3ccc(OC(F)(F)F)cn3)[C@H](C)c3ncccn3)ccc2nc1N (single isomer, unassigned)               IC50              26

###

The following compounds are listed with their measured IC50 values.
System: HCT116 WT cells
assay_name: HCT116 proliferation assay, WT cells (CellTiter-Glo, 6 days)
Format: cell-based
details: Homo sapiens, HCT-116, 144 h, read-out: Prolif_HCT116-WT IC50
reported_property: IC50 (µM)

In [3]: df
Out[3]:
                                   compound  qual  value_observed
0  C[C@H](c1ncccn1)N(Cc1ccc(C(F)F)cn1)C(=O)c1ccc2nc(N)c(Br)cc2c1     =            5.39
1  COc1ccc(CN(C(=O)c2ccc3nc(N)c(Br)cc3c2)[C@H](C)c2ncccn2)nn1     >              10
2  Cc1cc2cc(C(=O)N(Cc3ccc(C#N)cn3)[C@H](C)c3ncn(C)n3)ccc2nc1N (single isomer, unassigned)     =            2.83
3  Cc1cc2cc(C(=O)N(Cc3ccc(C(F)(F)F)nn3)[C@@H]3CCc4cccnc43)ccc2nc1N     =            2.37
4  Cc1cc2cc(C(=O)N(Cc3ccc(C(F)(F)F)cn3)[C@H]3CCC[C@@H]3OC(F)F)ccc2nc1N (single isomer, unassigned)     =            1.31
5  Cc1cc2cc(C(=O)N(Cc3ccc(OC(F)(F)F)cn3)[C@H](C)c3ncccn3)ccc2nc1N (single isomer, unassigned)     =            0.73
6  Cc1cc2cc(C(=O)N(Cc3ccc(C(F)(F)F)cn3)CC3CC3)c(F)cc2nc1N     =            2.84

Provenance of the data: patent US20230159510A1
